- Tested on: MOLM-13 cells
- protocolNotes: Cell viability assay (CellTiter-Glo) in MOLM-13 cells, alone or with gilteritinib
- Assay type: cell-based
- settings: Homo sapiens, MOLM-13, 72 h, MOLM-13 cells, compound alone (without gilteritinib), three days, CellTiter-Glo; read-out: MOLM-13 IC50
experimentalReadout: IC50

The examples below pair each entry with its known result.
O=C1CCC(N2Cc3ccc(CCCCCCn4cc(-c5cnc6ccccc6n5)cn4)cc3C2=O)C(=O)N1 (stereo not shown) = > 1 µM
O=C1CCC(N2C(=O)c3ccc(NCCC[C@H]4C[C@H](n5cc(-c6cnc7ccc(CN8CCOCC8)cc7n6)c(C6CC6)n5)C4)cc3C2=O)C(=O)N1 (stereo partly shown) = 0.01 to 0.1 µM
O=C1CCC(N2C(=O)c3ccc(CCCCCCCn4cc(-c5cnc6ccccc6n5)cn4)cc3C2=O)C(=O)N1 (stereo not shown) = > 1 µM

I would be grateful if you could share the reported IC50 for O=C1CCC(N2C(=O)c3ccc(NCCCC4CC(n5cc(-c6cnc7ccc(CC8CNC8)cc7n6)cn5)C4)cc3C2=O)C(=O)N1 (stereo not shown) . > 1 µM

###

- Test system: MOLM-13 cells
- protocolNotes: Cell viability assay (CellTiter-Glo) in MOLM-13 cells, alone or with gilteritinib
- Type: cell-based
- settings: Homo sapiens, 72 h; MOLM-13 cells, compound alone (without gilteritinib), three days, CellTiter-Glo; read-out: MOLM-13 IC50
Give measured IC50 for each item. Keep answers brief.

O=C1CCC(N2C(=O)c3ccc(NCCNc4cccc(-n5cc(-c6cnc7ccccc7n6)cn5)c4)cc3C2=O)C(=O)N1 (stereo not shown) [GS-353] = > 1000 nM
O=C1CCC(N2Cc3ccc(CCCCCC(=O)N4CCN(c5ccccn5)CC4)cc3C2=O)C(=O)N1 (stereo not shown) [GS-103] = > 1000 nM
O=C1CCC(N2Cc3ccc(CCCCCCC(=O)N4CCC(c5ccccc5)CC4)cc3C2=O)C(=O)N1 (stereo not shown) [GS-099] = 100 to 1000 nM
O=C1CCC(N2Cc3ccc(CCCCCC(=O)N4CCC(c5ccc(Cl)cc5)CC4)cc3C2=O)C(=O)N1 (stereo not shown) [GS-114] = 100 to 1000 nM
O=C1CCC(N2C(=O)c3ccc(NCCNc4cccc(N5CCC(n6cc(-c7cnc8ccccc8n7)cn6)CC5)c4)cc3C2=O)C(=O)N1 (stereo not shown) [GS-351] = 10 to 100 nM

Hi there! I need IC50 for each item below, if you can.
1. O=C1CCC(N2C(=O)c3ccc(NCCCC(=O)N4CCN(c5ccccc5)CC4)cc3C2=O)C(=O)N1 (stereo not shown) [GS-319]
2. CN(c1ccccc1)C1CCN(CC(=O)NCCNc2ccc3c(c2)C(=O)N(C2CCC(=O)NC2=O)C3=O)CC1 (stereo not shown) [GS-320]

["> 1000 nM", "> 1000 nM"]

###

- Test system: MOLM-13 cells
- protocolNotes: Cell viability assay (CellTiter-Glo) in MOLM-13 cells, alone or with gilteritinib
- Assay type: cell-based
- settings: Homo sapiens, 72 h; MOLM-13 cells, compound alone (without gilteritinib), three days, CellTiter-Glo; read-out: MOLM-13 IC50
pIC50: −log10 of the molar value.
experimentalReadout: pIC50

The examples below pair each entry with its known result.
O=C1CCC(N2C(=O)c3ccc(NCCNc4cccc(N5CCC(n6cc(-c7cnc8cccc(Br)c8n7)cn6)CC5)c4)cc3C2=O)C(=O)N1 (stereo not shown) = > 8.00
O=C1CCC(N2C(=O)c3ccc(NCCCc4cc(F)cc(N5CCC(c6ccccc6)CC5)c4)cc3C2=O)C(=O)N1 (stereo not shown) = 7.00 to 8.00
O=C1CCC(N2C(=O)c3ccc(NCCCN4CC(N5CCN(c6ccccn6)CC5)C4)cc3C2=O)C(=O)N1 (stereo not shown) = < 6.00
O=C1CCC(N2C(=O)c3ccc(NCCCCC(F)(F)Cn4cc(-c5cnc6ccccc6n5)cn4)cc3C2=O)C(=O)N1 (stereo not shown) = < 6.00
O=C1CCC(N2C(=O)c3ccc(C4CCN(CCCn5cc(-c6cnc7ccccc7n6)cn5)CC4)cc3C2=O)C(=O)N1 (stereo not shown) = < 6.00

Hi there! I need pIC50 for each item below, if you can.
1. O=C1CCC(N2C(=O)c3ccc(NCCNc4cccc(N5CCC(c6nccs6)CC5)c4)cc3C2=O)C(=O)N1 (stereo not shown)
2. O=C1CCC(N2C(=O)c3ccc(NCCCc4cccc(N5CCC(c6ccccc6)CC5)c4F)cc3C2=O)C(=O)N1 (stereo not shown)

> 8.00
< 6.00
